# Tested on: U2OS
# Assay Remarks: Multiplex assay against U2OS
# Type: toxicity, cell-based
# Condition Notes: human, 12 h, 1 µM, compound concentration 1 uM, replicate 2
Parameter Measured: Population Fragmented Nuclei (%)
Reply with just the number (in %).

Cc1cnc(-c2cc(N3CCN(C(=O)CCS(C)(=O)=O)CC3)ncc2Cl)c(C)c1 : 18
CC(C)(C)c1cc(NC(=O)Nc2ccc(-c3cn4c(n3)sc3cc(OCCN5CCOCC5)ccc34)cc2)no1 : 17
NCCc1cn(S(=O)(=O)c2c(Cl)nc3sccn23)c2ccccc12.O=C(O)C(=O)O : 17
CC(C)COc1ccc(CNC(=O)N(Cc2ccc(F)cc2)C2CCN(C)CC2)cc1 : 11

Entry CC(=O)Nc1cccc2c1c(Sc1ccc(Cl)cc1)c(C)n2CC(=O)O ; Population Fragmented Nuclei (%) = 16

====

# Test system: HEK-293T
# Assay Remarks: Multiplex assay against HEK293T
# Format: toxicity, cell-based
# Condition Notes: human, 12 h, 1 µM, compound concentration 1 uM, replicate 2
Parameter Measured: Population Healthy Nuclei (%)
Reply with just the number (in %).

Sample records with Population Healthy Nuclei (%):
O=C(CCCc1ccccc1)Nc1nc2ccccc2c(=O)s1 : 74
CC(C)COc1ccc(CNC(=O)N(Cc2ccc(F)cc2)C2CCN(C)CC2)cc1 [PIMAVANSERIN] : 74
COc1ccccc1N1CCN(C[C@@H](C(=O)NC(C)(C)C)c2ccccc2)CC1.Cl.Cl : 76

Entry Cc1cccc(NC(=O)CN2CCC(c3ccccn3)CC2)c1.Cl.Cl ; Population Healthy Nuclei (%) = 82

Entry N#Cc1c(Oc2cccc(OS(=O)(=O)CCCC(F)(F)F)c2)cccc1C(F)(F)F ; Population Healthy Nuclei (%) = 75

Entry CN[C@@H](C)C(=O)N[C@H](C(=O)N1CCC[C@H]1C(=O)Nc1snnc1-c1ccccc1)C1CCCCC1 [GDC-0152] ; Population Healthy Nuclei (%) = 79

Entry COc1cccc2c1c(NS(=O)(=O)c1ccc(Cl)s1)nn2Cc1cccc(CNC(=O)C(C)(C)O)c1 ; Population Healthy Nuclei (%) = 77

Entry O=C(NCCN1CCC(n2c(=O)[nH]c3cc(Cl)ccc32)CC1)c1ccc(F)cc1 [HALOPEMIDE] ; Population Healthy Nuclei (%) = 79

Entry Cc1cnc(-c2cc(N3CCN(C(=O)CCS(C)(=O)=O)CC3)ncc2Cl)c(C)c1 ; Population Healthy Nuclei (%) = 75

Entry CC[C@@H](C)Nc1nc(C)nc2c(-c3ccc(OC)nc3C)c(C)nn12 [PEXACERFONT] ; Population Healthy Nuclei (%) = 82

Entry CC(=O)Nc1cccc2c1c(Sc1ccc(Cl)cc1)c(C)n2CC(=O)O [AZD1981] ; Population Healthy Nuclei (%) = 80

Entry CN1CCN(c2cc(-c3ccccc3)nc(N)n2)CC1 ; Population Healthy Nuclei (%) = 84

Entry O=C1[C@H](Cc2ccc(O)cc2)N2C(=O)CCN(C(=O)NCc3ccccc3)[C@H]2CN1Cc1cccc2ccccc12 ; Population Healthy Nuclei (%) = 78

Entry CCCCC(=O)N(Cc1ccc(-c2ccccc2-c2nnn[nH]2)cc1)[C@H](C(=O)O)C(C)C ; Population Healthy Nuclei (%) = 74

====

# Test system: U2OS
# Assay Remarks: Multiplex assay against U2OS
# Assay type: toxicity, cell-based
# Condition Notes: human, 12 h, 1 µM, compound concentration 1 uM, replicate 1
Parameter Measured: Population Hoechst High Intensity Objects (%)
Reply with just the number (in %).

Sample records with Population Hoechst High Intensity Objects (%):
O=C(NCCN1CCC(n2c(=O)[nH]c3cc(Cl)ccc32)CC1)c1ccc(F)cc1 [HALOPEMIDE] : 1
COC[C@@H](c1ccc(C(F)(F)F)cc1)N1CCN(C2(C)CCN(C(=O)c3c(C)ncnc3C)CC2)C[C@@H]1C.O=C(O)/C=C\C(=O)O [VICRIVIROC MALEATE] : 4
CN(C)C(=O)Cn1cc(-c2ccc(-c3cncc4ccccc34)cc2)cn1 : 3

Entry COc1ccccc1N1CCN(C[C@@H](C(=O)NC(C)(C)C)c2ccccc2)CC1.Cl.Cl ; Population Hoechst High Intensity Objects (%) = 2

Entry COc1cccc2c1c(NS(=O)(=O)c1ccc(Cl)s1)nn2Cc1cccc(CNC(=O)C(C)(C)O)c1 ; Population Hoechst High Intensity Objects (%) = 3
